Target Under Test: Nitric oxide synthase 3 (Bos taurus)
Sequence (P29473 whole entry): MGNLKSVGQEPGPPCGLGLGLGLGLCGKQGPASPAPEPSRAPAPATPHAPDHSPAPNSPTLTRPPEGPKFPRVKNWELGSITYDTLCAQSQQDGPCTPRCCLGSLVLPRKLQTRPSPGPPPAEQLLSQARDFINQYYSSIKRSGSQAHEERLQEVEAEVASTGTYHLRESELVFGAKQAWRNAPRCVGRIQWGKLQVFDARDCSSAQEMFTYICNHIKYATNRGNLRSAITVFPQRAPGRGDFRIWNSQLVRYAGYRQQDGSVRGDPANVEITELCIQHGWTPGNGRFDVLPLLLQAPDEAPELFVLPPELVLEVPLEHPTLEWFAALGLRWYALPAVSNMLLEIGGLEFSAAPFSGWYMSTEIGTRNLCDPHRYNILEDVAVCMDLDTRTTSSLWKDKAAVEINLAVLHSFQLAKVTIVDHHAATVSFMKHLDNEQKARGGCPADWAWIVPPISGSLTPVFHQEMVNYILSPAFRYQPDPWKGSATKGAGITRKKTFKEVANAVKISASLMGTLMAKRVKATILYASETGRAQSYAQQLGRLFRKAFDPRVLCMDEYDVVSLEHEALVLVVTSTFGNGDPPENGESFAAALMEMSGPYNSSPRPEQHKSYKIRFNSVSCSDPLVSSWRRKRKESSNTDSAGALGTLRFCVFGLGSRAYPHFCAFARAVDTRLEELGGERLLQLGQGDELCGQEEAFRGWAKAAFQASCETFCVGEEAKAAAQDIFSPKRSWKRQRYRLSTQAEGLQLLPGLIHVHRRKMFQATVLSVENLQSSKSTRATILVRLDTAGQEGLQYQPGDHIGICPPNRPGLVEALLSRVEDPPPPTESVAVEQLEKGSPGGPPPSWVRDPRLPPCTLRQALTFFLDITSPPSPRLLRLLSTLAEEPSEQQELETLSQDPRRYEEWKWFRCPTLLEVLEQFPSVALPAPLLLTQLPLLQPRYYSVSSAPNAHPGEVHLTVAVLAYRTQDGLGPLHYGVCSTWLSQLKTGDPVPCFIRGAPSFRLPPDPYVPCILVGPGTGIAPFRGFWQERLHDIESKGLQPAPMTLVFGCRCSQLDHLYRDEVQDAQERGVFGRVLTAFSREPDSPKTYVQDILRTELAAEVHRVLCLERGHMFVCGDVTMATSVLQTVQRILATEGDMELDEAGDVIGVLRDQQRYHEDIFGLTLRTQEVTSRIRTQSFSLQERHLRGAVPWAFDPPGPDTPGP
Measured Attribute: Ki (µM)
Numbers only, in µM.

Ask | Form field: reported Ki of Cc1cc(N)nc(COCCOCc2cc(C)cc(N)n2)c1
Reply | 5.26
